Target: FGFR1 (h) (Homo sapiens)
Sequence (P11362 22-822): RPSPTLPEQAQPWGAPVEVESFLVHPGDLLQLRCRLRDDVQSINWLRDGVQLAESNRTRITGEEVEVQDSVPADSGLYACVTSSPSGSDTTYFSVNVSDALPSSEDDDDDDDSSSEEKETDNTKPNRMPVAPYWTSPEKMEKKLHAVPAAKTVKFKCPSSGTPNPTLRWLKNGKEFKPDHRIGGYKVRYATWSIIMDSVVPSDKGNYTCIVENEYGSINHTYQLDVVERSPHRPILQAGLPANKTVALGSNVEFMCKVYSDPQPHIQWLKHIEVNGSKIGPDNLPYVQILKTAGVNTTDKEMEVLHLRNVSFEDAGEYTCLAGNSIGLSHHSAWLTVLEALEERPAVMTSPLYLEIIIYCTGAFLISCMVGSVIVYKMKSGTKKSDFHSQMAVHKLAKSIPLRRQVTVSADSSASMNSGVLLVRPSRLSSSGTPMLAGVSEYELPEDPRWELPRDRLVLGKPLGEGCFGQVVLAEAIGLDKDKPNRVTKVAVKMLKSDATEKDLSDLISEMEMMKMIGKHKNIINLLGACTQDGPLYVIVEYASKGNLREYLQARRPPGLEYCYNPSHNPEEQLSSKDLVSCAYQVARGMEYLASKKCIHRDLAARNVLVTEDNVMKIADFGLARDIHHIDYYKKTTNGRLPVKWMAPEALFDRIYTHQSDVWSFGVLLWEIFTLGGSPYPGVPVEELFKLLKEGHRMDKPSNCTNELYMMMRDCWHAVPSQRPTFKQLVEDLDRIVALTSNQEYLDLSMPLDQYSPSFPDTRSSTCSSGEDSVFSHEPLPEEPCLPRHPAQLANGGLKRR
Assay: FGFR1 (enzymatic assay), TR-FRET
Assay type: biochemical
Details: 5 μM ATP; read-out: FGFR1 pIC50 (converted)
Experimental: In a final reaction volume of 30 μL, FGFR1 (h) (25 ng/ml) was incubated with 50 mM HEPES pH 7.5, 6 mM MnCl2, 1 mM DTT, 0.1 mM Na3VO4, 0.01% Triton-X-100, 500 nM Btn-Flt3 and 5 μM ATP in the presence of compound (1% DMSO final). […] Time-Resolved Fluorescence Resonance Energy Transfer (TR-FRET) signal (ex340 nm. Em 620 nm, em 655 nm) was measured afterwards and results are expressed in RFU (Relative Fluorescence Units). […]
Each record's IC50 is compared with lower (below 20 nM), middle (20 nM to below 200 nM), upper (200 nM or more) to give its class.

>>> qualitative_label("COc1cc(OC)cc(/C(=C\\CN(C)C)c2ccc3ncc(-c4cnn(C)c4)nc3c2)c1")
"lower"
>>> qualitative_label("COc1cc(OC)cc(C(NCCNC(C)C)c2ccc3ncc(-c4cnn(C)c4)nc3c2)c1.Cl (single isomer, unassigned) [Compound 24]")
"middle"
>>> qualitative_label("COc1cc(OC)cc(/C(=C/CNC(C)C)c2ccc3ncc(-c4cnn(C)c4)nc3c2)c1")
"middle"
>>> qualitative_label("COc1cc(OC)cc(C(CC(=O)NC(C)C)c2ccc3ncc(-c4cnn(C)c4)nc3c2)c1 (stereo not drawn)")
"upper"
>>> qualitative_label("COc1cc(OC)cc(C(O)(CNCCNC(C)C)c2ccc3ncc(-c4cnn(C)c4)nc3c2)c1 (single isomer, unassigned) [Compound 6]")
"upper"
>>> qualitative_label("COc1cc(OC)cc(C(CC#N)c2ccc3ncc(-c4cnn(C)c4)nc3c2)c1 (stereo not drawn)")
"middle"

Prompt: Entry COc1cc(OC)cc(C(O)(CNCCNC(C)C)c2ccc3ncc(-c4cnn(C)c4)nc3c2)c1 (single isomer, unassigned) [Compound 5] belongs to which category?
Response: upper

Prompt: Sort into band: COc1cc(OC)cc(/C(=C\CNCC(F)(F)F)c2ccc3ncc(-c4cnn(C)c4)nc3c2)c1
Response: lower

Prompt: GET /class?item= CN(C)CCC(c1ccccc1)c1ccc2ncc(-c3cnn(C)c3)nc2c1 (stereo not drawn)
Response: upper

Prompt: Looking at COc1cc(OC)cc(/C(=C\CNC(C)C)c2ccc3ncc(-c4cnn(C)c4)nc3c2)c1 , which class would you pick?
Response: lower

Prompt: Each compound maps to one class by IC50. Which class for COc1cc(OC)cc(C(CCNC(C)C)c2ccc3ncc(-c4cnn(C)c4)nc3c2)c1.Cl (stereo not drawn) ?
Response: middle

Prompt: Kindly state the category for this compound: COc1cc(OC)cc(C(CCN)c2ccc3ncc(-c4cnn(C)c4)nc3c2)c1.Cl (stereo not drawn)
Response: middle

Prompt: Lab log: COc1cc(OC)cc(/C(=C/C#N)c2ccc3ncc(-c4cnn(C)c4)nc3c2)c1 — assign IC50 category
Response: upper

Prompt: Would you mind sorting COc1cc(OC)cc(C(CCNCC(F)(F)F)c2ccc3ncc(-c4cnn(C)c4)nc3c2)c1.Cl (stereo not drawn) into the appropriate category?
Response: upper

====

Would you mind telling me the reported BAF3-FGFR1 (MIN IL3) pIC50 of each entry?
molecular target: Ba/F3-FGFR1-transfected cells (Homo sapiens, UniProt P11362); construct: BAF3-FGFR1 (MIN IL3) pIC50; other: minus IL3; experiment: Ba/F3-FGFR1 (minus IL3 or plus IL3) cellular proliferation assay; assay type: cell-based; settings: minus IL3
Sequence (P11362 whole entry, change not shown): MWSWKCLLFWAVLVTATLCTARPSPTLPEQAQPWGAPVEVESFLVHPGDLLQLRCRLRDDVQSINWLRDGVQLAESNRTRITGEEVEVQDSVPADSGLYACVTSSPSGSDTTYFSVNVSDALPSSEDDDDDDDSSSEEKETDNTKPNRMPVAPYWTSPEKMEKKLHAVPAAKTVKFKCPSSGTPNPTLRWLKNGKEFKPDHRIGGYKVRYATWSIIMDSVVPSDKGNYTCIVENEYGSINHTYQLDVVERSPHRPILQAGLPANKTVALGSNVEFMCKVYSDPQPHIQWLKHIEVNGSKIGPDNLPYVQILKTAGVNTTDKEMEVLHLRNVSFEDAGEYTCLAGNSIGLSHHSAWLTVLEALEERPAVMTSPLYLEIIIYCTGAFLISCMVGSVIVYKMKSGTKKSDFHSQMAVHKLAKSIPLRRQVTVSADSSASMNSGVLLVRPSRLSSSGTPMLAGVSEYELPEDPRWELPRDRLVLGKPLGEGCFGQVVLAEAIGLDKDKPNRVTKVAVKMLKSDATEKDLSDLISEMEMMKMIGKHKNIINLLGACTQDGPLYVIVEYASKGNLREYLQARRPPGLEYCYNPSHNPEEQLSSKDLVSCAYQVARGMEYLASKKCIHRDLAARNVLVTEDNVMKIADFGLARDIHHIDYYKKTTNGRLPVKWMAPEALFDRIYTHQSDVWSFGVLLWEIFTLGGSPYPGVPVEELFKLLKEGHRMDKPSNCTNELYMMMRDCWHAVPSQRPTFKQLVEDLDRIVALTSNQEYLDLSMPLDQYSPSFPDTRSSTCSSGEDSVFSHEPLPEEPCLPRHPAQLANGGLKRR

Completed entries (count: 5):
>>> result("COc1cc(OC)cc(/C(=C\\CNCC(F)(F)F)c2ccc3ncc(-c4cnn(C)c4)nc3c2)c1 [Compound 14]")
6.17
>>> result("COc1cc(OC)cc(C(NCCNC(C)C)c2ccc3ncc(-c4cnn(C)c4)nc3c2)c1.Cl (single isomer, unassigned) [Compound 39]")
"<5"
>>> result("CN(C)CCC(c1ccccc1)c1ccc2ncc(-c3cnn(C)c3)nc2c1 (stereo not drawn) [Compound 35]")
"<5"
>>> result("COc1cc(OC)cc(/C(=C/CN(C)C)c2ccc3ncc(-c4cnn(C)c4)nc3c2)c1 [Compound 34]")
5.08
>>> result("COc1cc(OC)cc(C(O)(CNCCNC(C)C)c2ccc3ncc(-c4cnn(C)c4)nc3c2)c1 (single isomer, unassigned) [Compound 5]")
"<5"

Prompt: Item COc1cc(OC)cc(C(O)(CNCCNC(C)C)c2ccc3ncc(-c4cnn(C)c4)nc3c2)c1 (single isomer, unassigned) [Compound 6] with Ba/F3-FGFR1-transfected cells (Homo sapiens, UniProt P11362) - BAF3-FGFR1 (MIN IL3) pIC50?
Response: <5
